Give measured IC50 p110 alpha/IC50 p110 delta (greater than or equal to, ≧) for each item. Keep answers brief.
- studyTarget: p110 alpha (Homo sapiens, UniProt P42336)
- Construct: purchased Upstate Group, Millipore; Dundee, UK
- Sequence (P42336 whole entry): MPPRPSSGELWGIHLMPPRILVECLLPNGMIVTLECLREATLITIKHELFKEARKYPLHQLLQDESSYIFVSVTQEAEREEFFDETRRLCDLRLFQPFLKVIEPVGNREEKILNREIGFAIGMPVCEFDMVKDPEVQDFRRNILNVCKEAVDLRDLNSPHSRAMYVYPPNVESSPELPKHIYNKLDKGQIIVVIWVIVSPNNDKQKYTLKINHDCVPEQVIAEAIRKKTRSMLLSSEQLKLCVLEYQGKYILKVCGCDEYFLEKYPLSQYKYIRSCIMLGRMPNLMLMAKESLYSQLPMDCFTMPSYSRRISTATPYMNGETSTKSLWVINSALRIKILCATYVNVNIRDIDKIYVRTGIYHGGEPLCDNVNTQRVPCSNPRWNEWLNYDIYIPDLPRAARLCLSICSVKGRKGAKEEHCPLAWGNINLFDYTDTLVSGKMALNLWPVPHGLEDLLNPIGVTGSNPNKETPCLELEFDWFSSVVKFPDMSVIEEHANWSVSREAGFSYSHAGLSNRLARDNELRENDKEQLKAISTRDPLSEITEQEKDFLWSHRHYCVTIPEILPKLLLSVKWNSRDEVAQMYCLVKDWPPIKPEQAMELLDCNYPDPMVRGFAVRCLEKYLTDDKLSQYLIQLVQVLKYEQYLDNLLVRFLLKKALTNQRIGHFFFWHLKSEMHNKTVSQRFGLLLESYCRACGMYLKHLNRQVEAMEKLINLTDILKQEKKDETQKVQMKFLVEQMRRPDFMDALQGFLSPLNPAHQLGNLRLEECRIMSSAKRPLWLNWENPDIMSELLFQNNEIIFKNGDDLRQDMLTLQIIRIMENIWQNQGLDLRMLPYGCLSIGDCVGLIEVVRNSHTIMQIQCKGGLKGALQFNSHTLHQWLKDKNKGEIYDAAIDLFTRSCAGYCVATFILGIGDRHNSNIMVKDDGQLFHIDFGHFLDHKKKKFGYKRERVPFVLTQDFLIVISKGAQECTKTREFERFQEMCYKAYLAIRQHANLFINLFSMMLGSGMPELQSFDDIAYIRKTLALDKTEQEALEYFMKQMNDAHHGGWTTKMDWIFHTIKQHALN
- Sequence (P27986 whole entry partner): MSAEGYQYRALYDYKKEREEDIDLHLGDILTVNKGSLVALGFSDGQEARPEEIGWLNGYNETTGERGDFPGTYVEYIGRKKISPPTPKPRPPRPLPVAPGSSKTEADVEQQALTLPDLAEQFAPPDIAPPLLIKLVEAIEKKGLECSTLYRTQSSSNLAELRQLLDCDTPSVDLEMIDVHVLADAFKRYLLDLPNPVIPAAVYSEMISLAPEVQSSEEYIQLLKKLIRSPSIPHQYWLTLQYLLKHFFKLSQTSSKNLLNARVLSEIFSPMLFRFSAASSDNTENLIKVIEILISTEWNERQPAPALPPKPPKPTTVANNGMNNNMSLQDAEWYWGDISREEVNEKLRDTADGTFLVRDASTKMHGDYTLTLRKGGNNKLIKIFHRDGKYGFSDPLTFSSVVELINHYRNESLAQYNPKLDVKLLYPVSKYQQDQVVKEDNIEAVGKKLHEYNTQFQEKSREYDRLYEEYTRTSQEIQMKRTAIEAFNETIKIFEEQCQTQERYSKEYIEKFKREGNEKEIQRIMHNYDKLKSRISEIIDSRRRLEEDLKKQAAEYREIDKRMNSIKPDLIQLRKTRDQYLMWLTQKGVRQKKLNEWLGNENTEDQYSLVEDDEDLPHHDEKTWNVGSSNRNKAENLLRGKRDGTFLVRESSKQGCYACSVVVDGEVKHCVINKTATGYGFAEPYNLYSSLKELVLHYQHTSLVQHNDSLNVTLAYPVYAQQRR
- assayRemarks: PI3K isoform inhibition assay, p110 alpha (delta/alpha selectivity)
- Assay type: biochemical
- studyConditions: delta/alpha selectivity ratio

CC(Nc1ncnc2[nH]cnc12)c1sc2ccccc2c1-c1ccccc1 (centres unmarked) : ≥ 40
C[C@H](Nc1ncnc2[nH]cnc12)c1nc2ccc(F)cc2n1-c1ccccc1 : ≥ 2459
Nc1ncnc2c1ncn2Cc1nc2ccccc2n1-c1ccccc1 : ≥ 11
CC(=O)N1CCC(n2c([C@H](C)Nc3ncnc4[nH]cnc34)nc3ccccc32)CC1 : ≥ 153
C[C@H](Nc1ncnc2[nH]cnc12)c1nc2cccnc2n1-c1ccccc1 : ≥ 104
C[C@H](Nc1ncnc2sccc12)c1nc2ccccc2n1-c1ccccc1 : ≥ 24
CC(Nc1ncnc2[nH]cnc12)c1nc2ccccc2n1-c1ccccc1 (racemic) : ≥ 230

-- ask Could you share what IC50 p110 alpha/IC50 p110 delta (greater than or equal to, ≧) was measured for "CC[C@H](Nc1ncnc2[nH]cnc12)c1nc2ccccc2n1-c1ccccc1" , tested on p110 alpha (Homo sapiens, UniProt P42336)?
-- reply ≥ 1320

* * *

- studyTarget: p110 alpha (Homo sapiens)
- Construct: purchased Upstate Group, Millipore; Dundee, UK
- assayRemarks: PI3K isoform inhibition assay, p110 alpha (delta/alpha selectivity)
- Assay type: biochemical
- studyConditions: delta/alpha selectivity ratio
readoutLabel: IC50 p110 alpha/IC50 p110 delta (greater than or equal to, ≧)

Consider the worked cases shown below.
C[C@H](Nc1ncnc2[nH]cnc12)c1nc2c(Cl)cccc2n1-c1ccccc1 : ≥ 470
C[C@H](Nc1ncnc2[nH]cnc12)c1nc2ccccc2n1C1CCN(C2COC2)CC1 : ≥ 33

Take each entry in turn and give its IC50 p110 alpha/IC50 p110 delta (greater than or equal to, ≧).
1. CC(Nc1ncnc2[nH]cnc12)c1oc2ccccc2c1-c1ccccc1 (stereo not shown)
2. C[C@H](Nc1ncnc2[nH]cnc12)c1nc2ccccc2n1C1CCCOC1 (stereo partly shown)

-- reply
1: ≥ 64; 2: ≥ 58

* * *

- Tested on: CD69 expression on CD20 positive cells in human whole blood stimulated by anti-IgM
- assayRemarks: CD69 Whole Blood Assay
- Assay type: cell-based
- studyConditions: concentration decreasing by 50% the percent CD69 positive cells that are also CD20 positive, 20 hours
pIC50: −log10 of the molar value.
// Not met strictly below 7 in pIC50; Met otherwise

C[C@H](Nc1ncnc2[nH]cnc12)c1nc2ccc(F)cc2n1-c1ccccc1 [Example 123] : Met

-- ask pIC50 >= 7 for CC[C@H](Nc1ncnc2nc[nH]c12)c1nc2ccc(F)cc2n1-c1ccccc1 [Example 160] ?
-- reply Not met

* * *

- System: CD69 expression on CD20 positive cells in human whole blood stimulated by anti-IgM
- assayRemarks: CD69 Whole Blood Assay
- Format: cell-based
- studyConditions: concentration decreasing by 50% the percent CD69 positive cells that are also CD20 positive, 20 hours
readoutLabel: IC50 (nM)
Answers are plain numbers, in nM.

Consider the worked cases shown below.
C[C@H](Nc1ncnc2[nH]cnc12)c1nc2cccc(F)c2n1-c1ccccc1 : 67.1
C[C@H](Nc1ncnc2[nH]cnc12)c1nc2cccc(Cl)c2n1-c1ccccc1 : 87.6

Alright, here's another compound for you.
-- ask Could you share what IC50 was measured for "C[C@H](Nc1ncnc2[nH]cnc12)c1nc2cccnc2n1-c1ccccc1" , tested on CD69 expression on CD20 positive cells in human whole blood stimulated by anti-IgM?
-- reply 83.4
